Sourced from the supplement of paper PMC6555819

Test system: PPARg:RXRa DBDmut IVT, anti-RXR (DBD mutation: RXRa K156A/R161A, NR concentration 270 nM, RXRa partner concentration 90 nM)
Assay: PBM binding z-score (relative to random genomic background probes); higher = stronger binding; sequences stand for … in GC…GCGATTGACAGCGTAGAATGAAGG
ASSAY_ENDPOINT: PBM binding z-score
Please reply with the number alone, leaving off any unit.

Measured PBM binding z-score, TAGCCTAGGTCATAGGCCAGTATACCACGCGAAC : 1.31

Measured PBM binding z-score, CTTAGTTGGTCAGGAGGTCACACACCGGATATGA : 3.35

Measured PBM binding z-score, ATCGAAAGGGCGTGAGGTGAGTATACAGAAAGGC : -0.47

Measured PBM binding z-score, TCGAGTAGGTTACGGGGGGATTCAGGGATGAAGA : 4.94

Measured PBM binding z-score, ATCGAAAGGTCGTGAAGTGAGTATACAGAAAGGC : 0.0713

Measured PBM binding z-score, CTCGAAAGGTGGTGCTCAGGTGAGTATACCAAAC : -0.605

Measured PBM binding z-score, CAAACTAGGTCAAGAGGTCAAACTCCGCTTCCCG : 8.21

Measured PBM binding z-score, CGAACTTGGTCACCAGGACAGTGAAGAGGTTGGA : 1.74

Measured PBM binding z-score, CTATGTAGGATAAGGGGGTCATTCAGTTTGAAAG : 4.4

Measured PBM binding z-score, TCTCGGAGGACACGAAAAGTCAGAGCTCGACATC : 1.7

Measured PBM binding z-score, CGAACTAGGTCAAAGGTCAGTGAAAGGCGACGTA : 8.37

Measured PBM binding z-score, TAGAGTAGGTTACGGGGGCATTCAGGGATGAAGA : 5.84

Measured PBM binding z-score, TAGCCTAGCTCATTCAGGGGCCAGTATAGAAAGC : -0.101

Measured PBM binding z-score, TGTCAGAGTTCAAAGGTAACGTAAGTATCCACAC : 0.11

Measured PBM binding z-score, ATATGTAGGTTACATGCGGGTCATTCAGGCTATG : 7.67

Measured PBM binding z-score, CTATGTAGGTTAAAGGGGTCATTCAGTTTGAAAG : 7.95

Measured PBM binding z-score, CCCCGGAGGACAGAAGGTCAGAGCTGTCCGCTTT : -0.634

Measured PBM binding z-score, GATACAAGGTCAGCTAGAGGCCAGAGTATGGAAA : 2.56

Measured PBM binding z-score, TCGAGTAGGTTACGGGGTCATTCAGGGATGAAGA : 5.23

Measured PBM binding z-score, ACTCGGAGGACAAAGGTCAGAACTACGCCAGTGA : 0.613

Measured PBM binding z-score, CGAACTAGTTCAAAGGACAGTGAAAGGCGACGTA : 0.0129

Measured PBM binding z-score, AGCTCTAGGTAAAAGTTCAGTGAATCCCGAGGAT : 2.59

Measured PBM binding z-score, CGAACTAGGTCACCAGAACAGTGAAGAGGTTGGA : 8.55

Measured PBM binding z-score, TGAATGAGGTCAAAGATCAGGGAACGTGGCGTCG : 5.48

Measured PBM binding z-score, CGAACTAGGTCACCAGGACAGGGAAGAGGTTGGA : 8.23

Measured PBM binding z-score, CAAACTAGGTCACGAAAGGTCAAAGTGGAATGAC : 8.3

---

System: RARa:RXR (NR concentration 270 nM, RXRa partner concentration 90 nM)
Test: PBM binding z-score (relative to random genomic background probes); higher = stronger binding; sequences stand for … in GC…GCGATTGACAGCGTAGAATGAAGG
Assign criterion met to entries whose PBM binding z-score meets or exceeds 4; assign criterion not met to the rest.

Determine whether this sequence has PBM binding z-score no lower than 4: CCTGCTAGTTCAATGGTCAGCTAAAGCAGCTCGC
criterion not met

Determine whether this sequence has PBM binding z-score no lower than 4: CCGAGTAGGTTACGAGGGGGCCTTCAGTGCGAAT
criterion not met

Determine whether this sequence has PBM binding z-score no lower than 4: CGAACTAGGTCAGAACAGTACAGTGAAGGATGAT
criterion not met

Determine whether this sequence has PBM binding z-score no lower than 4: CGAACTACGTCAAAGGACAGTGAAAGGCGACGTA
criterion not met

Determine whether this sequence has PBM binding z-score no lower than 4: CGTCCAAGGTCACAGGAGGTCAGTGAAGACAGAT
criterion met

Determine whether this sequence has PBM binding z-score no lower than 4: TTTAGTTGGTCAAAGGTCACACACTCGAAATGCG
criterion met

Determine whether this sequence has PBM binding z-score no lower than 4: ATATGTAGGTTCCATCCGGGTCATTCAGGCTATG
criterion not met

Determine whether this sequence has PBM binding z-score no lower than 4: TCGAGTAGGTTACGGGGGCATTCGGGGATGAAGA
criterion not met

Determine whether this sequence has PBM binding z-score no lower than 4: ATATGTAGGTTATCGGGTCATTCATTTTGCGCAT
criterion not met

Determine whether this sequence has PBM binding z-score no lower than 4: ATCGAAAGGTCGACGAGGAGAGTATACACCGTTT
criterion not met

Determine whether this sequence has PBM binding z-score no lower than 4: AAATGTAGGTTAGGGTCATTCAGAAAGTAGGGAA
criterion met

Determine whether this sequence has PBM binding z-score no lower than 4: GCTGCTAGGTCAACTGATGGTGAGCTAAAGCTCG
criterion not met

Determine whether this sequence has PBM binding z-score no lower than 4: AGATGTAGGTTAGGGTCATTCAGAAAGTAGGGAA
criterion met

Determine whether this sequence has PBM binding z-score no lower than 4: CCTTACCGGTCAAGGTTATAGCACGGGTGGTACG
criterion not met

Determine whether this sequence has PBM binding z-score no lower than 4: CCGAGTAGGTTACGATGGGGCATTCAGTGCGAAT
criterion not met

Determine whether this sequence has PBM binding z-score no lower than 4: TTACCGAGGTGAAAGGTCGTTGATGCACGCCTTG
criterion met

Determine whether this sequence has PBM binding z-score no lower than 4: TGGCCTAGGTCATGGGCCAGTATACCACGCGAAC
criterion not met

Determine whether this sequence has PBM binding z-score no lower than 4: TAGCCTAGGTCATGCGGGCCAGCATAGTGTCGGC
criterion not met

Determine whether this sequence has PBM binding z-score no lower than 4: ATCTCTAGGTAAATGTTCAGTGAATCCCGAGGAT
criterion not met

Determine whether this sequence has PBM binding z-score no lower than 4: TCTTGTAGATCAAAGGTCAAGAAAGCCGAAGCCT
criterion met

Determine whether this sequence has PBM binding z-score no lower than 4: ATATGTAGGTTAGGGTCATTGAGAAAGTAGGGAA
criterion met

Determine whether this sequence has PBM binding z-score no lower than 4: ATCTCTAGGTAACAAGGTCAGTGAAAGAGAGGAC
criterion not met

Determine whether this sequence has PBM binding z-score no lower than 4: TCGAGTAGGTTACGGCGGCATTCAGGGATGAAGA
criterion not met

Determine whether this sequence has PBM binding z-score no lower than 4: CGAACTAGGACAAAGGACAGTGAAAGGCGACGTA
criterion not met

Determine whether this sequence has PBM binding z-score no lower than 4: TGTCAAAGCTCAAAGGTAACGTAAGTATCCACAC
criterion not met

---

System: PPARa:RXRa (NR concentration 270 nM, RXRa partner concentration 90 nM)
Experiment: PBM binding z-score (relative to random genomic background probes); higher = stronger binding; sequences stand for … in GC…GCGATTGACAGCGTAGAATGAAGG
Please provide measured PBM binding z-score for the entries that follow.
Please reply with the number alone, leaving off any unit.

Measured PBM binding z-score, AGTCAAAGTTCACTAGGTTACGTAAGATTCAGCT : 4.85

Measured PBM binding z-score, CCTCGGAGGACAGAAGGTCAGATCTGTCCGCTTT : 1.62

Measured PBM binding z-score, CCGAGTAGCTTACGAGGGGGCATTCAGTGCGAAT : 1.77

Measured PBM binding z-score, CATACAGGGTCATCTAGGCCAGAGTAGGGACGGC : 5.58

Measured PBM binding z-score, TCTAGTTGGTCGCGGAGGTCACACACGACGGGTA : 3.61

Measured PBM binding z-score, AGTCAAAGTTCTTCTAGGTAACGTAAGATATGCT : 0.304

Measured PBM binding z-score, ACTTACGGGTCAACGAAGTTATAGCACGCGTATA : 5.47

Measured PBM binding z-score, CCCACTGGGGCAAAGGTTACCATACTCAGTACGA : 5.98

Measured PBM binding z-score, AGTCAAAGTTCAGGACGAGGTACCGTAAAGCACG : 3.21

Measured PBM binding z-score, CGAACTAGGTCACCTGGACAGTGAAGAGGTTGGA : 5

Measured PBM binding z-score, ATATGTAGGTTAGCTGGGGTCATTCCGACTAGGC : 5.14

Measured PBM binding z-score, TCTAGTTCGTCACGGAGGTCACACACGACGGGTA : 4.1
